These entries and their values trace back to patent US12527775B2.

TARGET_OR_TEST_SYSTEM: human recombinant 5-HT2A receptor (Homo sapiens (Human))
EXPERIMENT_NOTES: biochemical
Assay type: binding
EXPERIMENTAL_SETUP: [3H]-Ketanserin 3 nmol/L, Jump-In HEK cell membrane; class symbols; read-out: h-5-HT2A Ki
pKi: −log10 of the molar value.
MEASURED_QUANTITY: pKi

**Query** GET /values?readout=pKi&item= CC(C)COc1ccc(CNC(=O)N(Cc2ccn(C(F)F)n2)C2CCN(C)CC2)cc1
**Result** > 8.00

**Query** Another compound to look at: CC(C)COc1ccc(CNC(=O)N(Cc2ccc(F)cn2)[C@H]2CCN(C)C[C@H]2F)cc1
**Result** > 8.00

**Query** Proceed to Cc1ccc(CNC(=O)N(Cc2ccc(F)cn2)C2CCN(C)CC23CC3)cc1 (racemic)
**Result** > 8.00

**Query** Consider next the compound CC(C)COc1ccc(CNC(=O)N(Cc2ncc(O)cc2F)C2CCN(C)CC2)cc1 in the same way.
**Result** 7.00 to 8.00

**Query** Next entry: CCCOc1ccc(CNC(=O)N(Cc2ccn(C)n2)[C@H]2CCNC[C@H]2F)cc1
**Result** > 8.00

**Query** Continue with Cc1ccc(CNC(=O)N(Cc2ccc(F)cn2)[C@H]2CCN(C)CC23CC3)cc1
**Result** > 8.00

**Query** Can you handle CC(C)COc1ccc(CNC(=O)N(Cc2ccn(C)c2)[C@@H]2CCNC[C@@H]2F)cc1 (racemic) next?
**Result** > 8.00

**Query** Now the compound CCCOc1ccc(CNC(=O)N(Cc2ccc(F)cn2)[C@H]2CCNC[C@H]2F)cc1
**Result** > 8.00

**Query** And C[C@@H](F)COc1ccc(CNC(=O)N(Cc2ccc(F)cn2)C2CCN(C)CC2)cc1 ?
**Result** > 8.00

**Query** Let us now turn to CCCOc1ccc(CNC(=O)N(Cc2ccn(C)n2)C2CCNCC23CC3)cc1 (racemic)
**Result** > 8.00

**Query** Lookup C=Cc1ccc(CNC(=O)N(Cc2ccc(F)cn2)C2CCN(C)CC2)cc1
**Result** > 8.00

**Query** What do we get for CC(C)COc1ccc(CNC(=O)N(Cc2ccc(F)cn2)C2CCN(C)C(CO)C2)cc1 (stereo not shown) ?
**Result** > 8.00

**Query** What about this compound? CC(C)COc1ccc(CNC(=O)N(Cc2ncc(F)cc2O)C2CCN(C)CC2)cc1
**Result** 7.00 to 8.00

**Query** Then what about the compound Cc1ccc(CNC(=O)N(Cc2ccc(F)cn2)C2CCNCC23CC3)cc1 (racemic) ?
**Result** > 8.00

**Query** Moving on to the next compound: CC(C)COc1ccc(CNC(=O)N(Cc2ncccc2F)[C@@H]2CCN(C)C[C@@H]2F)cc1 (racemic)
**Result** 7.00 to 8.00

**Query** Cool, now CN1CCC(N(Cc2ccc(F)cn2)C(=O)NCc2ccc(C3CC3)cc2)CC1
**Result** > 8.00

* * *

TARGET_OR_TEST_SYSTEM: human recombinant 5-HT2C receptor (Homo sapiens (Human))
Sequence (P28335 whole entry, looked up): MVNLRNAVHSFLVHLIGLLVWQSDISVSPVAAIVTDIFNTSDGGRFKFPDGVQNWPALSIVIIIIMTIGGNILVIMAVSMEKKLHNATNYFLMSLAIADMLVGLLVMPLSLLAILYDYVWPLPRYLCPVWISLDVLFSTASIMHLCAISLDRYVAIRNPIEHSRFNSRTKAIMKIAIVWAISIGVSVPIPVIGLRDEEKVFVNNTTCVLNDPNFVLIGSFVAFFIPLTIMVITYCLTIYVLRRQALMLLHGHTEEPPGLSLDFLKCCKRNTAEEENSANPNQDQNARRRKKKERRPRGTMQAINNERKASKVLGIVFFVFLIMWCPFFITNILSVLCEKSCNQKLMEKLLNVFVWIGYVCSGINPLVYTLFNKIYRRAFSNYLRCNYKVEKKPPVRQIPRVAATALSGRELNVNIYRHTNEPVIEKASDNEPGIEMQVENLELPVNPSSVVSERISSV
EXPERIMENT_NOTES: biochemical
Format: binding
EXPERIMENTAL_SETUP: human serotonin 5-HT2C receptor binding, [3H]-Mesulergine; read-out: h-5-HT2C Ki
pKi: −log10 of the molar value.
MEASURED_QUANTITY: pKi

**Query** Endpoint output: pKi of CC(C)COc1ccc(CNC(=O)N(Cc2ccn(C)n2)C2CCNCC23CC3)cc1 (racemic) . Value?
**Result** > 8.00

**Query** And for CN1CCC(N(Cc2ccc(F)cn2)C(=O)NCc2ccc(OCC(C)(F)F)cc2)CC1 ?
**Result** > 8.00

**Query** Proceed to CN1CCC(N(Cc2ccc(F)cn2)C(=O)NCc2ccc(OCC(F)(F)F)cc2)CC1
**Result** > 8.00

**Query** Next entry: CC(C)COc1ccc(CNC(=O)N(Cc2ncc(O)cc2F)C2CCN(C)CC2)cc1
**Result** < 7.00
